# credit: PubChem BioAssay (NCI)

- Test system: SNB-75 CNS
- assay_comment: NCI tumour cell line growth inhibition, 48 h
endpoint: TGI (µM)
Numeric only. Scale: µM

1. CN(CCCNC(=O)c1cn(C)c2c1ccc1cc(Cl)c(Cl)cc12)CCCNC(=O)c1cn(C)c2c1ccc1cc(Cl)c(Cl)cc12 : 25.6

// moving on: another record for TGI
Prompt: Value lookup for TGI; key = COC(=O)[C@@H]1C[C@H]([Se]c2ccccc2)CN1S(=O)(=O)c1ccc(C)cc1
Response: 44.5

###

- Tested on: HL-60(TB) leukemia
- assay_comment: NCI tumour cell line growth inhibition, 48 h
Where a SMILES comes first, the peptide text is derived from it.
endpoint: TGI

Prompt: Find the recorded TGI belonging to CN=C1Nc2ccc(Cl)cc2C(c2ccccc2)=NN1C and report it.
Response: > 100 µM

Prompt: Sample c1cc(OCCN2CCCCCC2)ccc1CNc1ccc2nc(CCC3CCCCC3)[nH]c2c1 — what was its TGI?
Response: 3.8 µM

Prompt: Would you kindly share the measured TGI for Cc1cc(O)c(C(c2cccnc2)c2c(O)cc(C)[nH]c2=O)c(=O)[nH]1 ?
Response: > 100 µM

Prompt: Consider the compound shown here: CC(C)CC(NC(=O)C(CC(C)C)NC(=O)C(Cc1cnc[nH]1)NC(=O)C(C)NC(=O)C(NC(=O)C(C)NC(=O)C(Cc1c[nH]c2ccccc12)NC(=O)C(CCC(=O)O)NC(=O)C(N)Cc1ccccc1)C(C)C)C(N)=O (centres undefined) (H-FEWAVAHLL-NH2; configuration not given here) What is its recorded TGI?
Response: > 100 µM

Prompt: For the compound COc1ccc(-c2cnc3ccnn3c2-c2cc(OC)c(OC)c(OC)c2)cc1 , what TGI is on record?
Response: 7.16 µM

Prompt: # lookup: TGI of CC1(C)CCC2(C(=O)OC3OC(CO)C(O)C(O)C3O)CCC3(C)C(=CCC4C5(C)CCC(OC6OC(CO)C(O)C(O)C6O)C(C)(C)C5CCC43C)C2C1 (centres undefined)
Response: 16.4 µM
